method_notes: Dissolution test against cold water at 10° C.
Format: physicochemical
cond: average of 5; 20 ml water 10° C., about 300 rpm; 0.5 g trehalose or 0.2 g maltose
experimental_endpoint: Time required for dissolution, Average (s)
// return numeric value only (unit: s, not printed)

// worked examples, Time required for dissolution, Average included
| compound | Time required for dissolution, Average (s) |
| --- | --- |
| OC[C@H]1O[C@H](O[C@H]2[C@H](O)[C@@H](O)C(O)O[C@@H]2CO)[C@H](O)[C@@H](O)[C@@H]1O (mixture of isomers) [Hydrous crystalline β-maltose (Control), maltose] | 116 |
| OC[C@H]1O[C@H](O[C@H]2O[C@H](CO)[C@@H](O)[C@H](O)[C@H]2O)[C@H](O)[C@@H](O)[C@@H]1O [Anhydrous crystalline trehalose (Control)] [α-D-glucosyl α-D-glucoside, reference compound] | 90 |
| OC[C@H]1O[C@H](O[C@H]2O[C@H](CO)[C@@H](O)[C@H](O)[C@H]2O)[C@H](O)[C@@H](O)[C@@H]1O [Hydrous crystalline trehalose (Control), α-D-glucosyl α-D-glucoside] | 123 |

// moving on: another record for Time required for dissolution, Average
[Q] I'd like to know its Time required for dissolution, Average. The compound in question is OC[C@H]1O[C@H](O[C@H]2[C@H](O)[C@@H](O)C(O)O[C@@H]2CO)[C@H](O)[C@@H](O)[C@@H]1O (mixture of isomers) [Anhydrous crystalline α-maltose (Control)] [reference compound]
[A] 37
